- System: Escherichia coli
- EXPERIMENT_SUMMARY: microbe, parasite or virus in culture
- Type: cell-based
- PARTICULARS: Escherichia coli ATCC 25922; CAA supplemented with human serum
- Experimental: Determination of Minimal Inhibitory Concentrations (MIC). Additional MIC testing was performed for several peptides against the ESKAPE pathogens Escherichia coli, Enterobacter cloacae, Klebsiella pneumoniae, and Acinetobacter baumannii, in CAA supplemented with human serum (Table D).
READOUT_TYPE: MIC (µg/mL)
Give bare numbers, in µg/mL.

Below are 3 sequences. Give each one its MIC.
1. MRRRRLSRRTSRRFFRKGLKVRRRNLRARPMRGGFRI [Unp2]
2. MMKYRKKMSAKSSRKQFTKGAMKVKGKNFTKPMRGGIRL [Unp5]
3. MSKKASRKSFTKGAVKVHKKNVPTRVPMRGGIRL [Gkh2]

A.
1. 0.25
2. 1
3. 1

Below are 3 sequences. Give each one its MIC.
1. MARSRRRMSKRSSRRSFRKYAKTHKRNFKARSMRGGIRL [Ecp1]
2. MARSRRRMSKRSSRRSFRKYAKTHKKNFKARSMRGGIRL [Ecp3]
3. MKMRKRTDKRVFTRTAAKSKKVNIAPKIFRGGIRL [Unp1]

A.
[0.25, 1, 0.5]
